Experiment: The drug is tested on the gut metagenome community of A-06 with ENA study accession number: PRJEB31790 for biotransformation under anaerobic condition. The drug concentrations were measured over 7 timepoints collected between 0 and 12 hours of incubation by liquid-chromatography-coupled mass spectrometry (LC–MS)
Format: ADME
Parameters: dose 5 uM, timepoint 0, 0.75, 1.5, 3, 6, 9, 12 hours
Details: 5 µM
ENDPOINT_LABEL: Bacterial Biotransformation

Here are 6 compounds together with their reported answers.
COMPOUND	Bacterial Biotransformation
NS(=O)(=O)c1cc(C(=O)O)c(NCc2ccco2)cc1Cl [FUROSEMIDE]	Compound NOT metabolized
C[C@]12CCC(=O)C=C1CC[C@@H]1[C@@H]2C(=O)C[C@@]2(C)[C@H]1CC[C@]2(O)C(=O)CO [CORTISONE]	Compound metabolized
C[C@H]1C[C@H]2[C@@H]3CCC4=CC(=O)C=C[C@]4(C)[C@@]3(F)[C@@H](O)C[C@]2(C)[C@@]1(O)C(=O)CO [BETAMETHASONE]	Compound metabolized
CCC(C)(C)C(=O)O[C@H]1C[C@@H](C)C=C2C=C[C@H](C)[C@H](CC[C@@H]3C[C@@H](O)CC(=O)O3)[C@H]21 [SIMVASTATIN]	Compound NOT metabolized
C[C@@H](NCCCc1cccc(C(F)(F)F)c1)c1cccc2ccccc12	Compound NOT metabolized
CCOC(=O)[C@H](CCc1ccccc1)N[C@@H](C)C(=O)N1[C@H](C(=O)O)C[C@@H]2CCC[C@@H]21	Compound NOT metabolized

Input line: Find the measured Bacterial Biotransformation of COc1ccc([C@@H]2Sc3ccccc3N(CCN(C)C)C(=O)[C@@H]2OC(C)=O)cc1 [DILTIAZEM] and report it.
Output line: Compound metabolized

Input line: For the compound C[C@H]1C[C@@H]2[C@H]([C@@H](O)C[C@@]3(C)[C@H]2CC[C@]3(O)C(=O)CO)[C@@]2(C)C=CC(=O)C=C12 [METHYLPREDNISOLONE] , give its measured Bacterial Biotransformation value.
Output line: Compound metabolized

Input line: For the compound COc1c(C)c2c(c(O)c1C/C=C(\C)CCC(=O)OCCN1CCOCC1)C(=O)OC2 [MYCOPHENOLATE MOFETIL] , give its measured Bacterial Biotransformation value.
Output line: Compound metabolized

Input line: // fetch Bacterial Biotransformation given entry CCOc1nc2cccc(C(=O)O)c2n1Cc1ccc(-c2ccccc2-c2nnn[nH]2)cc1
Output line: Compound NOT metabolized

Input line: Using known records, supply Bacterial Biotransformation for C=CC[C@@H]1/C=C(\C)C[C@H](C)C[C@H](OC)[C@H]2O[C@@](O)(C(=O)C(=O)N3CCCC[C@H]3C(=O)O[C@H](/C(C)=C/[C@@H]3CC[C@@H](O)[C@H](OC)C3)[C@H](C)[C@@H](O)CC1=O)[C@H](C)C[C@@H]2OC.O [TACROLIMUS]
Output line: Compound metabolized

Input line: Return value of Bacterial Biotransformation for input CCCC1O[C@@H]2C[C@H]3[C@@H]4CCC5=CC(=O)C=C[C@]5(C)[C@H]4[C@@H](O)C[C@]3(C)[C@]2(C(=O)CO)O1 (some centres undefined) [BUDESONIDE] , no commentary.
Output line: Compound metabolized

Input line: Query Bacterial Biotransformation for Cn1cnc([N+](=O)[O-])c1Sc1ncnc2nc[nH]c12 [AZATHIOPRINE]
Output line: Compound metabolized

Input line: Report measured Bacterial Biotransformation; entry is C[C@]12CCC(=O)C=C1CC[C@@H]1[C@@H]2[C@@H](O)C[C@@]2(C)[C@H]1CC[C@]2(O)C(=O)CO [HYDROCORTISONE]
Output line: Compound metabolized

Input line: Using the record for CO[C@H]1C[C@@H]2CC[C@@H](C)[C@@](O)(O2)C(=O)C(=O)N2CCCC[C@H]2C(=O)O[C@H]([C@H](C)C[C@@H]2CC[C@@H](OCCO)[C@H](OC)C2)CC(=O)[C@H](C)/C=C(\C)[C@@H](O)[C@@H](OC)C(=O)[C@H](C)C[C@H](C)/C=C/C=C/C=C/1C [EVEROLIMUS] , state its measured Bacterial Biotransformation.
Output line: Compound metabolized
